From: patent US9206156B2

- target.under.test: ORL1 receptor (Homo sapiens, UniProt P41146)
- Construct: expressed in transfected cells; host or cells: CHO (recombinant CHO-ORL1 cells), membranes
- Sequence (P41146 whole entry): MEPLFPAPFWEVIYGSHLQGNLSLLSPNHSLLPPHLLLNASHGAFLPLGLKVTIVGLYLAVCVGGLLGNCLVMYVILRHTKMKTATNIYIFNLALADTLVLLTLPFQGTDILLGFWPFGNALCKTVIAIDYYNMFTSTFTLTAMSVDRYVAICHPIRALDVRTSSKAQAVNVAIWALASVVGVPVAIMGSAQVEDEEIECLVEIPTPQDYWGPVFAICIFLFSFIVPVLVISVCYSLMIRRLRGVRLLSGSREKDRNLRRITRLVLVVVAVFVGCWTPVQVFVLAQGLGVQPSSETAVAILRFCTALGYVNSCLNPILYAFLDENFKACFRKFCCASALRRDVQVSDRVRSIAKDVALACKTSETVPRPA
- protocol.summary: ORL1 receptor binding assay with 3H-nociceptin/orphanin FQ (WGA-SPA beads)
- condition.summary: c=1 μM test substance; 0.5 nM 3H-nociceptin/orphanin FQ; membranes of recombinant CHO-ORL1 cells
- Procedure: Measurement of ORL1 Binding The cyclohexane derivatives having the general formula I were investigated in a receptor binding assay with ^3H-nociceptin/orphanin FQ with membranes of recombinant CHO—ORL1 cells. […] The binding to the ORL1 receptor was determined using 1 mg amounts of WGA-SPA beads (Amersham-Pharmacia, Freiburg, Germany), by incubation of the batch for one hour at room temperature and subsequent measurement in a Trilux scintillation counter (Wallac, Finland). […]
Please use 1 whenever inhibition at 1 µM is not below 60%, and -1 whenever it is.

Could you tell me if the measured inhibition at 1 µM of CN(CCCN1CCC(c2cccs2)(N(C)C)CC1)C(=O)CCc1c[nH]c2ccccc12 [Example 21] reaches 60% or more?
1

Could you tell me if the measured inhibition at 1 µM of CN(C)C1(c2ccccc2)CCN(C(=O)C2CCCN(C(=O)Cc3c[nH]c4cc(F)ccc34)C2)CC1 (centres unmarked) [Example 124] reaches 60% or more?
-1

Could you tell me if the measured inhibition at 1 µM of CN(C(=O)Cc1c[nH]c2ccc(Br)cc12)C(C(=O)N1CCC(c2cccs2)(N(C)C)CC1)c1ccccc1 (centres unmarked) [Example 100] reaches 60% or more?
1

Could you tell me if the measured inhibition at 1 µM of CN(C)C1(c2cccs2)CCN(C(=O)CC(NCc2c[nH]c3ccccc23)c2ccccc2)CC1 (centres unmarked) [Example 164] reaches 60% or more?
1

Could you tell me if the measured inhibition at 1 µM of CN(CCN1CCC(c2ccccc2)(N(C)C)CC1)Cc1c(-c2ccccc2)[nH]c2ccccc12 [Example 71] reaches 60% or more?
1

Could you tell me if the measured inhibition at 1 µM of CN(C(=O)c1ccc2cc[nH]c2c1)C(C(=O)N1CCC(c2cccs2)(N(C)C)CC1)c1ccccc1 (centres unmarked) [Example 102] reaches 60% or more?
1

Could you tell me if the measured inhibition at 1 µM of CN(C)C1(c2ccccc2)CCN(C(=O)C2CCCN(Cc3cccc4[nH]ccc34)C2)CC1 (centres unmarked) [Example 161] reaches 60% or more?
-1

Could you tell me if the measured inhibition at 1 µM of CN(CCCN1CCC(c2ccccc2)(N(C)C)CC1)C(=O)c1cc2cc(F)ccc2[nH]1 [Example 53] reaches 60% or more?
1
